Assay notes: Ratio of cytotoxicity against human EAhy926 cells to antiangiogenic activity in VEGF-stimulated human EAhy926 cells
Format: toxicity, cell-based
Test readout: selectivity ratio
Could you respond with only the numeric value?

Memo: O=C(NCc1cn(-c2ccc3cn[nH]c3c2)nn1)Nc1cccc(CCl)c1 , reported selectivity ratio: 13
